- Test target: GDP-bound KRAS wild-type protein (Homo sapiens)
- Sequence (P01116 whole entry): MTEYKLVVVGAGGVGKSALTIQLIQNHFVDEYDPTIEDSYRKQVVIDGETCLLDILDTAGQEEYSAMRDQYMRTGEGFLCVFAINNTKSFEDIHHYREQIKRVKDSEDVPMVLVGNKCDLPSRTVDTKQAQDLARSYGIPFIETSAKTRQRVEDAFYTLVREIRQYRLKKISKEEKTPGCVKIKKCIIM
- Experiment: Binding to KRAS by surface plasmon resonance (SPR), Single Cycle Kinetics
- Test conditions: SPR Single Cycle Kinetics, GDP-bound KRAS wild-type protein, 1:1 binding model; read-out: KRAS KD
Where a SMILES comes first, the peptide text is derived from it. Bridges are numbered along the chain shown (N, C = ends). [ ]: non-standard residue; d: D form. The star is where a group is joined. hPhe(3-Cl-4-CF3) = N[C@@H](CCc1ccc(C(F)(F)F)c(Cl)c1)C(=O)O; NPrPhe(4-CF3) = CCCN[C@@H](Cc1ccc(C(F)(F)F)cc1)C(=O)O; NMeGly(cPent) = CN[C@H](C(=O)O)C1CCCC1; Pro(4,4-F2) = O=C(O)[C@@H]1CC(F)(F)CN1; NMeL = CN[C@@H](CC(C)C)C(=O)O; Morpholide = C1CN(*)CCO1; Ac4c = NC1(C(=O)O)CCC1; Sar = CNCC(=O)O
Class boundaries, taken from values of Kd, are as follows: b0 (below 0.8 nM), b1 (0.8 nM to below 2 nM), b2 (2 nM or more)

A selection of reference data follows.
{"Molecule": "CCCN1C(=O)CN(C)C(=O)CN(C)C(=O)[C@H]([C@@H](C)CC)NC(=O)[C@H](CC(C)C)N(C)C(=O)C[C@@H](C(=O)N2CCOCC2)NC(=O)[C@H](C2CCCC2)N(C)C(=O)C2(CCC2)NC(=O)[C@@H]2CC(F)(F)CN2C(=O)[C@H](CCc2ccc(C(F)(F)F)c(Cl)c2)NC(=O)CN(C)C(=O)[C@@H]1Cc1ccc(C(F)(F)F)cc1 [PP0322] ([NMeL]I[Sar][Sar][NPrPhe(4-CF3)][Sar][hPhe(3-Cl-4-CF3)][Pro(4,4-F2)][Ac4c][NMeGly(cPent)]D-Morpholide; lactam N-11)", "Qualitative label": "b1"}
{"Molecule": "CCC[C@H]1C(=O)N[C@@H]([C@@H](C)CC)C(=O)N(C2CC2)CC(=O)N(C)[C@H]2C/C=C\\CCN(C2=O)[C@@H](Cc2ccc(C)cc2)C(=O)N(C)CC(=O)N[C@@H](CCc2cc(F)c(C(F)(F)F)c(F)c2)C(=O)N2C[C@H](OC3CCC3)C[C@H]2C(=O)NC2(CC(C)(C)C2)C(=O)N(C)[C@@H](C2CCCC2)C(=O)N(C)[C@H](C(=O)N(C)C)CC(=O)N1C", "Qualitative label": "b0"}

Now consider the entry below.
*Q* Band of "C#CCN1CC(=O)N(C)[C@H]2C/C=C\CCN(C2=O)[C@@H](Cc2ccc(C)cc2)C(=O)N(C)CC(=O)N[C@@H](CCc2cc(F)c(C(F)(F)F)c(F)c2)C(=O)N2C[C@H](OCC)C[C@H]2C(=O)NC2(CCC2)C(=O)N(C)[C@@H](C2CCCC2)C(=O)N(C)[C@H](C(=O)N(C)C)CC(=O)N(C)[C@@H](CCC)C(=O)N[C@@H](CC(C)C)C1=O" ?
*A* b2

FYI, the data here is from patent US20240158446A1.
